- SYSTEM TESTED: UniProt:O14791
- METHOD DESCRIPTION: Inhibition of APOL1 G1 variant in human HEK293-T-REx cells measured by Thallium assay
Please provide measured IC50 for the entries that follow.

See these solved cases before continuing.
compound="NC(=O)CNC1CC(c2c(-c3ccc(F)cc3)[nH]c3c(F)cc(F)cc23)C1 (configuration not stated)" observed="> 1000 nM"
compound="N#CC(CO)NC(=O)C1CC(Cc2c(-c3ccc(F)cc3)[nH]c3c(F)cc(F)cc23)C1 (configuration not stated)" observed="> 1000 nM"
compound=O=C([C@H]1C[C@H](c2c(-c3ccc(F)cc3)[nH]c3c(F)cc(F)cc32)C1)N1CC[C@H](CO)C1 observed="> 1000 nM"
compound=CN(C)C[C@@H]1CCN(C(=O)[C@H]2C[C@H](c3c(-c4ccc(F)cc4)[nH]c4c(F)cc(F)cc43)C2)C[C@H]1O observed="> 1000 nM"
compound="CC(O)CN(C)C(=O)[C@H]1C[C@H](c2c(-c3ccc(F)cc3)[nH]c3c(F)cc(F)cc32)C1 (some centres not stated)" observed="> 1000 nM"

Hey, can you go through the list below and give me IC50 for every item?
1. O=C(NCc1cnco1)C1CC(Cc2c(-c3ccc(F)cc3)[nH]c3c(F)cc(F)cc23)C1 (configuration not stated)
2. O=C(N[C@@H](CO)C(F)(F)F)[C@H]1C[C@H](c2c(-c3ccc(F)cc3)[nH]c3c(F)cc(F)cc32)C1
3. O=C(NCc1ccc(=O)[nH]c1)C1CC(Cc2c(-c3ccc(F)cc3)[nH]c3c(F)cc(F)cc23)C1 (configuration not stated)

1: > 1000 nM; 2: 0.25 nM; 3: > 1000 nM

Hey, can you go through the list below and give me IC50 for every item?
1. O=C1C[C@@H](NC(=O)[C@H]2C[C@H](c3c(-c4ccc(F)cc4)[nH]c4c(F)cc(F)cc43)C2)C(=O)N1
2. CC(C)C(CO)NC(=O)O[C@H]1C[C@H](c2c(-c3ccc(F)cc3)[nH]c3c(F)cc(F)cc32)C1 (some centres not stated)
3. O=C(N[C@H]1CCC[C@@H]1O)[C@H]1C[C@H](c2c(-c3ccc(F)cc3)[nH]c3c(F)cc(F)cc32)C1
4. O=C1CC[C@H](NC(=O)[C@H]2C[C@H](c3c(-c4ccc(F)cc4)[nH]c4c(F)cc(F)cc43)C2)C1
5. COC1CC1NC(=O)[C@H]1C[C@H](c2c(-c3ccc(F)cc3)[nH]c3c(F)cc(F)cc32)C1 (some centres not stated)
6. C[C@@H](CO)NC(=O)[C@H]1C[C@@H](c2c(-c3ccc(F)cc3)[nH]c3c(F)cc(F)cc32)C1

["< 250 nM", "> 1000 nM", "0.25 nM", "0.25 nM", "> 1000 nM", "0.25 nM"]

Recorded values, source ChEMBL document CHEMBL5052856.
